target: Kallikrein-1 (Homo sapiens, UniProt P06870)
Sequence (P06870 whole entry): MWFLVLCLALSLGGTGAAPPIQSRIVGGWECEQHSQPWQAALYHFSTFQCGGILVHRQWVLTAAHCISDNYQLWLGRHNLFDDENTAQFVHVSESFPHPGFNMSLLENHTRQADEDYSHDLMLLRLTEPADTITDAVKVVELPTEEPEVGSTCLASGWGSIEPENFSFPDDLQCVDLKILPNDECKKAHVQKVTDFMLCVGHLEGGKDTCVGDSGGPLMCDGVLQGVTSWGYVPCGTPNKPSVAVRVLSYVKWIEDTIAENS
measured-quantity: Ki (nM)
Hi! Could you send only the number? It should be in nM, unit omitted.

Short answer please: Ki, Kallikrein-1 (Homo sapiens, UniProt P06870), entry COC(=O)C1C(CCc2ccccc2)=CC(C(=O)NC(CCCCN)C(=O)C(=O)NCCc2ccc(C(N)=O)cc2)n2c(=O)n(Cc3cc(F)ccc3F)c(=O)n21 (stereo unspecified)
21

###

Heads up, these molecules all have pKi values measured for Serine protease 1 (Homo sapiens).
Just the number, please; pKi means minus log10 of the concentration in mol/L.

>  <molecule>
CC(C)CCn1c(=O)n2n(c1=O)C(C(=O)NC(CCCCN)C(=O)C(=O)NCCc1ccc(C(N)=O)cc1)C=CC2CC(C)C (configuration not stated)

>  <pKi>
9.37

$$$$

Now examine the next entry.
Short answer please: pKi, Serine protease 1 (Homo sapiens), entry COc1ccc(-n2c(=O)n3n(c2=O)C(C(=O)NC(CCCCN)C(=O)C(=O)NCCc2ccc(C(N)=O)cc2)C=CC3CC(C)C)cc1 (configuration not stated)
9.55
